STUDY TARGET: HDAC1 (Homo sapiens)
Sequence (Q13547 whole entry): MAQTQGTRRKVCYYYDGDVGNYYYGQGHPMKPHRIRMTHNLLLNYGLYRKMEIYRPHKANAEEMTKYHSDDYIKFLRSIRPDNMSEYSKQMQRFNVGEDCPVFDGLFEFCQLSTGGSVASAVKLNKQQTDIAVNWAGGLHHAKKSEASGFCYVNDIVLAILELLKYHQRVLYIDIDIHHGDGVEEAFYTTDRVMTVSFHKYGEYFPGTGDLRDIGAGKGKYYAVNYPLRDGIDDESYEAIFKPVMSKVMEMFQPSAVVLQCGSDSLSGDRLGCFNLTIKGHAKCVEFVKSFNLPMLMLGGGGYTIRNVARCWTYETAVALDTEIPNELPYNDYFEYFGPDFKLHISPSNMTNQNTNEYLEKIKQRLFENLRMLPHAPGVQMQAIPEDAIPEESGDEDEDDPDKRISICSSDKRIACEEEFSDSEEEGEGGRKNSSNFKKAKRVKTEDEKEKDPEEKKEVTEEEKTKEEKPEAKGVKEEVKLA
PROTOCOL: Fluorescence-based biochemical HDAC enzyme inhibition assay (ZMAL substrate)
DETAILS: HDAC1 IC50, preincubation of enzyme and inhibitor 1 h at RT; no irradiation
VALUE TYPE: pIC50
Conceptually, pIC50 converts a concentration in mol/L into minus its log10.

TEST SMILES | pIC50
CC(=O)Nc1ccc(C(=O)Nc2cc(-c3ccccc3)ccc2O)cc1 | 7.64

Endpoint output: pIC50 of "COc1cc(COc2ccc(-c3ccccc3)cc2NC(=O)c2ccc(NC(C)=O)cc2)c([N+](=O)[O-])cc1OC" . Value?
6.08

====

STUDY TARGET: UniProt:Q13547
PROTOCOL: IC50-shift (preincubation time) experiments
DETAILS: HDAC1 IC50, preincubation time 30 min
VALUE TYPE: IC50
The number alone won't do; follow it with the unit.

Endpoint output: IC50 of "CC(=O)Nc1ccc(C(=O)Nc2cc(-c3ccccc3)ccc2O)cc1" . Value?
36 nM

====

System: MV-3 cells
PROTOCOL: MTT cell viability (antiproliferative) assay
Format: cell-based, human
DETAILS: Homo sapiens, MV-3, light or radiation study; with UV irradiation (10 min, 365 nm) of ST17; 120 h; read-out: MV-3 EC50 (MTT)
VALUE TYPE: EC50 (µM)
# unit: µM | format: bare number

Endpoint output: EC50 of "COc1cc(COc2ccc(-c3ccccc3)cc2NC(=O)c2ccc(NC(C)=O)cc2)c([N+](=O)[O-])cc1OC" . Value?
4.64

These measurements were taken from paper PMC12706802.
